# TARGET_OF_ASSAY: T1, human GLP-2 receptor (hGLP2-R) (human, UniProt O95838 1-553)
# T1 sequence (looked up): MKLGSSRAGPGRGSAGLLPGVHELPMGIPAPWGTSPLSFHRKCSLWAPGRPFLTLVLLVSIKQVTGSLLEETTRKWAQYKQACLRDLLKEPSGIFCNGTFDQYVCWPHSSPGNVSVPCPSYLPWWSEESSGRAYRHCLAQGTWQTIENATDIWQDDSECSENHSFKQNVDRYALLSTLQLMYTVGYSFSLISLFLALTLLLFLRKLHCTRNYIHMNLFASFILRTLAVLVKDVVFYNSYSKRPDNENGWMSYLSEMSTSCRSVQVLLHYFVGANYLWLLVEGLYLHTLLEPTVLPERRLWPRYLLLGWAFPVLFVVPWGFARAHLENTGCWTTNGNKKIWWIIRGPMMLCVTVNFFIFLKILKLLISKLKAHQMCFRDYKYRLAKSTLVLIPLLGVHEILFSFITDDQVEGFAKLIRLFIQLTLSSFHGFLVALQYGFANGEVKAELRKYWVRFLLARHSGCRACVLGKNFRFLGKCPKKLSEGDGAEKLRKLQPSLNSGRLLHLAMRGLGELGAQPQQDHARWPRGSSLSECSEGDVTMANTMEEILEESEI
# ASSAY_DETAILS: cell-based or functional assay
*1 amine or outer side, *2 acyl side, *3 side chain or, on linkers, in order; H or OH if unused. Side-chain parts run from the residue outwards. [ ]: non-standard residue; d: D form. The star is where a group is joined. C20 diacid = O=C(O)CCCCCCCCCCCCCCCCCCC(=O)*; γGlu = O=C(O)[C@H](CCC(=O)[*:2])N[*:1]; AEEA = NCCOCCOCC(=O)O; Aib = CC(C)(N)C(=O)O
OUTCOME_MEASURE: EC50 GLP-2 (nM); cAMP response
Write the number in nM without appending the unit.

Some solved entries appear below for comparison.
- H-H[Aib]EGTFTSELATILDK([Lys-Glu-Lys-γGlu-C20 diacid])QAARDFIAWLIQHKITD-OH [Compound 51]: 0.18
- H-H[Aib]EGSFTSELATILDK([AEEA-AEEA-Lys-Glu-Lys-γGlu-C20 diacid])QAARDFIAWLIEHKITD-OH [Compound 60]: 0.074
- H-H[Aib]EGSFTSELATILDK([AEEA-Lys-Glu-Lys-γGlu-C20 diacid])KAARDFIAWLIEHKITD-OH [Compound 59]: 0.11
- H-H[Aib]EGSFTSELATILDEQAAK([AEEA-AEEA-Lys-Glu-Lys-γGlu-C20 diacid])DFIAWLIEHKITD-OH [Compound 66]: 0.18

Below: the item to evaluate.
Which measured EC50 GLP-2 (nM); cAMP response value corresponds to H-H[Aib]EGSFTSELATILDEQAAK([AEEA-Lys-Glu-Lys-γGlu-C20 diacid])DFIAWLIEHKITD-OH [Compound 64] ? 0.2
